Biological target: H1047R PIK3CA enzyme (Homo sapiens, UniProt P42336, H1047R)
Sequence (P42336 whole entry H1047R): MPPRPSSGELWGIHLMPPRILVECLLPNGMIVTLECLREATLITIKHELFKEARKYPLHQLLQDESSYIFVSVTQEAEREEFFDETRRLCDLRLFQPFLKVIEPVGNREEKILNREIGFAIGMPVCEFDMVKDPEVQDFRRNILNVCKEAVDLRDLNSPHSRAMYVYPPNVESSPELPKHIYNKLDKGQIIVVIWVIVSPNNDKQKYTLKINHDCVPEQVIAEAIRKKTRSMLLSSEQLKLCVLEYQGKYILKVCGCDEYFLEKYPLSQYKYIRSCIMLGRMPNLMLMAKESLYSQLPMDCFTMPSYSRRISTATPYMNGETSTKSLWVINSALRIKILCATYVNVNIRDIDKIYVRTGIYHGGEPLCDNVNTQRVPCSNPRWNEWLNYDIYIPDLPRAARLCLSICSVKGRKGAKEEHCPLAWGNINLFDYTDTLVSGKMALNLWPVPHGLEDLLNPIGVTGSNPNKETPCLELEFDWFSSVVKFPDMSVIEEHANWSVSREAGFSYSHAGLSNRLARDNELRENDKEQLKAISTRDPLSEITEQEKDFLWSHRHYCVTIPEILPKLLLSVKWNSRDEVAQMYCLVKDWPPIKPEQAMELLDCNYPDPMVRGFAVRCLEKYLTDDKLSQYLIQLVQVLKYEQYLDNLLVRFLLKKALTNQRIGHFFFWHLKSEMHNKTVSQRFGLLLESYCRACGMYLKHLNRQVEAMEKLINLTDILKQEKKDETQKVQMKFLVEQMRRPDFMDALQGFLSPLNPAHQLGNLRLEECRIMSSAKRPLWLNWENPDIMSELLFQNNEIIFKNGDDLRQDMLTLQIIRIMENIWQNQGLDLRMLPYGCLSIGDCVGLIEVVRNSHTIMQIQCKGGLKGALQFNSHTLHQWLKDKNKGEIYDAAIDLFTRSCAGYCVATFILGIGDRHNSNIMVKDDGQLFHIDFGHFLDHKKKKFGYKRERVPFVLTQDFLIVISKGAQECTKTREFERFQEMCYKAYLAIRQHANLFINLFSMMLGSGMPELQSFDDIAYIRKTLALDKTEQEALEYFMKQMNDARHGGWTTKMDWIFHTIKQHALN
Sequence (P27986 whole entry partner): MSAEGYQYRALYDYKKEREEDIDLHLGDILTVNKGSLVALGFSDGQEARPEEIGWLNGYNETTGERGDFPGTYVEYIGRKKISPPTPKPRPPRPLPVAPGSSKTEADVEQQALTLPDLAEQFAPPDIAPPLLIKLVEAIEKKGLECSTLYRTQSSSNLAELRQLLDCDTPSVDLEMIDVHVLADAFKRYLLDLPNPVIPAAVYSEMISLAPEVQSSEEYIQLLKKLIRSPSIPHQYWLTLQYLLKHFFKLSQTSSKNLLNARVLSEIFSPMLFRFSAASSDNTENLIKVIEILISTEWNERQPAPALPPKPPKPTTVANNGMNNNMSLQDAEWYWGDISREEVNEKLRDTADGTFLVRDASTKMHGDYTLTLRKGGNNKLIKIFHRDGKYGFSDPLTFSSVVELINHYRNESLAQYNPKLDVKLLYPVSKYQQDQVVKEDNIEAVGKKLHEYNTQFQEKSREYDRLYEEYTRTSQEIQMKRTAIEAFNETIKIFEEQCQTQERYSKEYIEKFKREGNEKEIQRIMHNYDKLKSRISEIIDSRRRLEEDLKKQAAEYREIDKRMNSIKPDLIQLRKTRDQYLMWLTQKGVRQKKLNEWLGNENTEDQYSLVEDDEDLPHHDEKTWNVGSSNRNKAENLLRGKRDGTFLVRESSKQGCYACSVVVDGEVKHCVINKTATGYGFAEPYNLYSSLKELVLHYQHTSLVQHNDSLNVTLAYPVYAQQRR
Assay: ADP-Glo Biochemical PIK3CA Kinase Assay
Details: ADP-Glo biochemical PIK3CA kinase assay
measurement name: IC50

Check out these entries, answers already filled in.
compound	IC50
COc1ccnc(CNC(=O)c2cnc(Nc3ccccc3C)c(NC(=O)c3csc4ccccc34)c2)c1	100 to 500 nM
CNC(=O)c1cnc(Nc2ccccc2C)c(NC(=O)c2cn3c(F)cccc3n2)c1	10000 to 100000 nM
CNC(=O)c1cnc(Nc2ccccc2C)c(NC(=O)Cc2cc(Cl)cc(C(F)(F)F)c2)c1	1000 to 10000 nM
CNC(=O)c1cnc(Nc2ccccc2C)c(NC(=O)C2CCC(F)(F)CC2)c1	10000 to 100000 nM
Cc1ccccc1Nc1ncc(C(=O)N[C@H]2COC[C@@H]2O)cc1NC(=O)c1csc2ccccc12	100 to 500 nM
Cc1ccccc1Nc1ncc(C(=O)N2CCC(C)(O)C2)cc1NC(=O)c1csc2ccccc12 (centres unmarked)	1000 to 10000 nM
Cc1ccccc1Nc1ncc(C(=O)NCC2(O)CCOCC2)cc1NC(=O)c1csc2ccccc12	500 to 1000 nM

Now for the compound whose IC50 we want.
q: Output IC50 of Nc1ncc(C(=O)NC2CC(F)(F)C2)cc1NC(=O)c1csc2ccccc12
a: 1000 to 10000 nM
